# Test system: LG0567-F671-PDC complex spheroids viability
# assay: Anticancer human tumor LG0567-F671-PDC patient-derived lung adenocarcinoma cell line growth inhibition [RAS]
# studyConditions: curve of first compound; second compound 0.01 µM
pIC50: −log10 of the molar value.
reportedEndpoint: pIC50

Example entries and their recorded answers appear below.
1) CC(Nc1ccc2c(c1)OCCn1cc(N3C(=O)OCC3C(F)F)nc1-2)C(N)=O (centres undefined) + C=CC(=O)N1CCN(c2nc(OCC3CCCN3C)nc3c(F)c(-c4nc(N)cc(C)c4C(F)(F)F)c(Cl)cc23)C(C)C1 | > 7.50
2) CC(=O)OC12COC1CC(O)C1(C)C(=O)C(O)C3=C(C)C(OC(=O)C(O)C(NC(=O)OC(C)(C)C)c4ccccc4)CC(O)(C(OC(=O)c4ccccc4)C21)C3(C)C (centres undefined) + C=CC(=O)N1CCN(c2nc(OCC3CCCN3C)nc3c(F)c(-c4nc(N)cc(C)c4C(F)(F)F)c(Cl)cc23)C(C)C1 | > 7.50
3) C[C@@H](NC(=O)c1ncnc(N)c1Cl)c1ncc(C(=O)Nc2cc(C(F)(F)F)c(Cl)cn2)s1 + C=CC(=O)N1CCN(c2nc(OCC3CCCN3C)nc3c(F)c(-c4nc(N)cc(C)c4C(F)(F)F)c(Cl)cc23)C(C)C1 | > 7.50

// sample CCc1c2c(nc3ccc(O)cc13)-c1cc3c(c(=O)n1C2)COC(=O)[C@]3(O)CC + C=CC(=O)N1CCN(c2nc(OCC3CCCN3C)nc3c(F)c(-c4nc(N)cc(C)c4C(F)(F)F)c(Cl)cc23)C(C)C1 , its pIC50 was > 9.02

// sample C=CC(=O)Nc1cc(Nc2nccc(-c3cn(C)c4ccccc34)n2)c(OC)cc1N(C)CCN(C)C + C=CC(=O)N1CCN(c2nc(OCC3CCCN3C)nc3c(F)c(-c4nc(N)cc(C)c4C(F)(F)F)c(Cl)cc23)C(C)C1 , its pIC50 was > 8.50

// sample NC1c2ccccc2OC12CCN(c1cnc3c(N4CCCc5ncccc54)n[nH]c3n1)CC2 (centres undefined) + C=CC(=O)N1CCN(c2nc(OCC3CCCN3C)nc3c(F)c(-c4nc(N)cc(C)c4C(F)(F)F)c(Cl)cc23)C(C)C1 , its pIC50 was > 7.50

// sample CC(C)NCC(C(=O)N1CCN(c2ncnc3c2C(C)CC3O)CC1)c1ccc(Cl)cc1 (centres undefined) + C=CC(=O)N1CCN(c2nc(OCC3CCCN3C)nc3c(F)c(-c4nc(N)cc(C)c4C(F)(F)F)c(Cl)cc23)C(C)C1 , its pIC50 was > 7.50

// sample CC1(O)CCCC1n1c(=O)c(C(F)F)cc2cnc(NC3CCN(S(C)(=O)=O)CC3)nc21 (centres undefined) + C=CC(=O)N1CCN(c2nc(OCC3CCCN3C)nc3c(F)c(-c4nc(N)cc(C)c4C(F)(F)F)c(Cl)cc23)C(C)C1 , its pIC50 was > 7.50

// sample CCN1CCN(Cc2ccc(Nc3ncc(F)c(-c4cc(F)c5nc(C)n(C(C)C)c5c4)n3)nc2)CC1 + C=CC(=O)N1CCN(c2nc(OCC3CCCN3C)nc3c(F)c(-c4nc(N)cc(C)c4C(F)(F)F)c(Cl)cc23)C(C)C1 , its pIC50 was > 8.50

###

Entries and their viability, T/C
# System: LG0567-F671-PDC complex spheroids viability
# assay: Anticancer human tumor LG0567-F671-PDC cell line growth inhibition [RAS];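 also: spheroids exposed to compound for seven days before readout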
# studyConditions: second compound 0.000949 µM; first compound 0.3 µM; stronger effect = lower value
Number only, in %; omit the unit.

Example entries and their recorded answers appear below.
1. CC1(C)CCC(Nc2ncc(C(F)(F)F)c(-c3c[nH]c4c(P(C)(C)=O)c(C#N)ccc34)n2)CN1 (centres undefined) + CCn1c(-c2cccnc2C(C)OC)c2c3cc(ccc31)N1CCOC(CC(NC(=O)C(C(C)C)N(C)C(=O)C3(F)CCN(C(=O)C#CC(C)(C)N(C)C)CC3)C(=O)N3CCCC(N3)C(=O)OCC(C)(C)C2)C1 | 14.8
2. CCc1c2c(nc3ccc(O)cc13)-c1cc3c(c(=O)n1C2)COC(=O)[C@]3(O)CC + CCn1c(-c2cccnc2C(C)OC)c2c3cc(ccc31)N1CCOC(CC(NC(=O)C(C(C)C)N(C)C(=O)C3(F)CCN(C(=O)C#CC(C)(C)N(C)C)CC3)C(=O)N3CCCC(N3)C(=O)OCC(C)(C)C2)C1 | 3.92
3. CC1(C)CCC(Nc2ncc(C(F)(F)F)c(-c3c[nH]c4c(P(C)(C)=O)c(C#N)ccc34)n2)CN1 (centres undefined) + CCn1c(-c2cc(N3CCN(C)CC3)cnc2C(C)OC)c2c3cc(ccc31)-c1csc(n1)CC(NC(=O)C1CC1C)C(=O)N1CCCC(N1)C(=O)OCC(C)(C)C2 | 20.3

Pending compound:
// sample CCc1c2c(nc3ccc(O)cc13)-c1cc3c(c(=O)n1C2)COC(=O)[C@]3(O)CC + CCn1c(-c2cc(N3CCN(C)CC3)cnc2C(C)OC)c2c3cc(ccc31)-c1csc(n1)CC(NC(=O)C1CC1C)C(=O)N1CCCC(N1)C(=O)OCC(C)(C)C2 , its viability, T/C was 3.66

###

# System: LG0567-F671-PDC complex spheroids viability
# assay: Anticancer human tumor LG0567-F671-PDC cell line growth inhibition [RAS];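 also: spheroids exposed to compound for seven days before readout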
# studyConditions: second compound 0.1 µM; first compound 10 µM; stronger effect = lower value
reportedEndpoint: viability, T/C (%)
Number only, in %; omit the unit.

1. CC(C)NCC(C(=O)N1CCN(c2ncnc3c2C(C)CC3O)CC1)c1ccc(Cl)cc1 (stereo unspecified) + C#Cc1c(F)ccc2cc(O)cc(-c3ncc4c(N5CC6CCC(C5)N6)nc(OCC56CCCN5CC(F)C6)nc4c3F)c12 | 56.4

// sample CC1(O)CCCC1n1c(=O)c(C(F)F)cc2cnc(NC3CCN(S(C)(=O)=O)CC3)nc21 (stereo unspecified) + C=CC(=O)N1CCN(c2nc(OCC3CCCN3C)nc3c(F)c(-c4nc(N)cc(C)c4C(F)(F)F)c(Cl)cc23)C(C)C1 , its viability, T/C was 13.3

// sample CC(C)NCC(C(=O)N1CCN(c2ncnc3c2C(C)CC3O)CC1)c1ccc(Cl)cc1 (stereo unspecified) + C=CC(=O)N1CCN(c2nc(OCC3CCCN3C)nc3c(F)c(-c4nc(N)cc(C)c4C(F)(F)F)c(Cl)cc23)C(C)C1 , its viability, T/C was 7.32

// sample CC(Nc1ccc2c(c1)OCCn1cc(N3C(=O)OCC3C(F)F)nc1-2)C(N)=O (stereo unspecified) + C#Cc1c(F)ccc2cc(O)cc(-c3ncc4c(N5CC6CCC(C5)N6)nc(OCC56CCCN5CC(F)C6)nc4c3F)c12 , its viability, T/C was 26

// sample CC(=O)OC12COC1CC(O)C1(C)C(=O)C(O)C3=C(C)C(OC(=O)C(O)C(NC(=O)OC(C)(C)C)c4ccccc4)CC(O)(C(OC(=O)c4ccccc4)C21)C3(C)C (stereo unspecified) + C=CC(=O)N1CCN(c2nc(OCC3CCCN3C)nc3c(F)c(-c4nc(N)cc(C)c4C(F)(F)F)c(Cl)cc23)C(C)C1 , its viability, T/C was 8.85

// sample NC1c2ccccc2OC12CCN(c1cnc3c(N4CCCc5ncccc54)n[nH]c3n1)CC2 (stereo unspecified) + C=CC(=O)N1CCN(c2nc(OCC3CCCN3C)nc3c(F)c(-c4nc(N)cc(C)c4C(F)(F)F)c(Cl)cc23)C(C)C1 , its viability, T/C was 2.64

// sample NC1c2ccccc2OC12CCN(c1cnc3c(N4CCCc5ncccc54)n[nH]c3n1)CC2 (stereo unspecified) + C#Cc1c(F)ccc2cc(O)cc(-c3ncc4c(N5CC6CCC(C5)N6)nc(OCC56CCCN5CC(F)C6)nc4c3F)c12 , its viability, T/C was 6.09

// sample CCC(CC)c1cc(NC2CCC(N)C2)n2nccc2n1 (stereo unspecified) + C=CC(=O)N1CCN(c2nc(OCC3CCCN3C)nc3c(F)c(-c4nc(N)cc(C)c4C(F)(F)F)c(Cl)cc23)C(C)C1 , its viability, T/C was 0.68

// sample C[C@@H](NC(=O)c1ncnc(N)c1Cl)c1ncc(C(=O)Nc2cc(C(F)(F)F)c(Cl)cn2)s1 + C#Cc1c(F)ccc2cc(O)cc(-c3ncc4c(N5CC6CCC(C5)N6)nc(OCC56CCCN5CC(F)C6)nc4c3F)c12 , its viability, T/C was 57

// sample C[C@@H](NC(=O)c1ncnc(N)c1Cl)c1ncc(C(=O)Nc2cc(C(F)(F)F)c(Cl)cn2)s1 + C=CC(=O)N1CCN(c2nc(OCC3CCCN3C)nc3c(F)c(-c4nc(N)cc(C)c4C(F)(F)F)c(Cl)cc23)C(C)C1 , its viability, T/C was 18.5

###

# System: LG0567-F671-PDC complex spheroids viability
# assay: Anticancer human tumor LG0567-F671-PDC cell line growth inhibition [RAS];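 also: spheroids exposed to compound for seven days before readout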
# studyConditions: second compound 0.3 µM; first compound 0.316 µM; stronger effect = lower value
reportedEndpoint: viability, T/C (%)
Number only, in %; omit the unit.

Example entries and their recorded answers appear below.
1. CCC(CC)c1cc(NC2CCC(N)C2)n2nccc2n1 (centres undefined) + CCn1c(-c2cc(N3CCN(C)CC3)cnc2C(C)OC)c2c3cc(ccc31)-c1csc(n1)CC(NC(=O)C1CC1C)C(=O)N1CCCC(N1)C(=O)OCC(C)(C)C2 | 2.39
2. C=CC(=O)Nc1cc(Nc2nccc(-c3cn(C)c4ccccc34)n2)c(OC)cc1N(C)CCN(C)C + CCn1c(-c2cccnc2C(C)OC)c2c3cc(ccc31)N1CCOC(CC(NC(=O)C(C(C)C)N(C)C(=O)C3(F)CCN(C(=O)C#CC(C)(C)N(C)C)CC3)C(=O)N3CCCC(N3)C(=O)OCC(C)(C)C2)C1 | 3.92
3. CC(Nc1ccc2c(c1)OCCn1cc(N3C(=O)OCC3C(F)F)nc1-2)C(N)=O (centres undefined) + CCn1c(-c2cccnc2C(C)OC)c2c3cc(ccc31)N1CCOC(CC(NC(=O)C(C(C)C)N(C)C(=O)C3(F)CCN(C(=O)C#CC(C)(C)N(C)C)CC3)C(=O)N3CCCC(N3)C(=O)OCC(C)(C)C2)C1 | 5.86

Pending molecule:
Entry CCN1CCN(Cc2ccc(Nc3ncc(F)c(-c4cc(F)c5nc(C)n(C(C)C)c5c4)n3)nc2)CC1 + CCn1c(-c2cc(N3CCN(C)CC3)cnc2C(C)OC)c2c3cc(ccc31)-c1csc(n1)CC(NC(=O)C1CC1C)C(=O)N1CCCC(N1)C(=O)OCC(C)(C)C2 , LG0567-F671-PDC complex spheroids viability data, viability, T/C value: 3.25
